tested on: ACHN renal; test: NCI tumour cell line growth inhibition, 48 h
readout kind: TGI (µM)
Only the number, expressed in µM, is required.

{"compound": "CC1CC(O)C(=O)C(O[C@@H]2C[C@@H]3CC[C@@H]4[C@H](CC[C@]5(C)C(C6=CC(=O)OC6)CC[C@]45O)[C@@]3(C=O)C[C@H]2O)O1 (stereo not given in full)", "unit tag": "µM", "reading": 0.0406}
{"compound": "Nc1nc(N)c(N=O)c(Nc2ccc(Br)cc2)n1", "unit tag": "µM", "reading": 49.3}
{"compound": "Clc1ccc(CSCCc2ccncc2)cc1Cl", "unit tag": "µM", "reading": 66}

What does the data say about its TGI? Entry: Cc1cc(N/N=C/c2ccccn2)nc2ccccc12
11.1
